- target: Recombinant mouse FAP (Mus musculus)
- Construct: purchased R&D systems 8647-SE
- Sequence (P97321 whole entry): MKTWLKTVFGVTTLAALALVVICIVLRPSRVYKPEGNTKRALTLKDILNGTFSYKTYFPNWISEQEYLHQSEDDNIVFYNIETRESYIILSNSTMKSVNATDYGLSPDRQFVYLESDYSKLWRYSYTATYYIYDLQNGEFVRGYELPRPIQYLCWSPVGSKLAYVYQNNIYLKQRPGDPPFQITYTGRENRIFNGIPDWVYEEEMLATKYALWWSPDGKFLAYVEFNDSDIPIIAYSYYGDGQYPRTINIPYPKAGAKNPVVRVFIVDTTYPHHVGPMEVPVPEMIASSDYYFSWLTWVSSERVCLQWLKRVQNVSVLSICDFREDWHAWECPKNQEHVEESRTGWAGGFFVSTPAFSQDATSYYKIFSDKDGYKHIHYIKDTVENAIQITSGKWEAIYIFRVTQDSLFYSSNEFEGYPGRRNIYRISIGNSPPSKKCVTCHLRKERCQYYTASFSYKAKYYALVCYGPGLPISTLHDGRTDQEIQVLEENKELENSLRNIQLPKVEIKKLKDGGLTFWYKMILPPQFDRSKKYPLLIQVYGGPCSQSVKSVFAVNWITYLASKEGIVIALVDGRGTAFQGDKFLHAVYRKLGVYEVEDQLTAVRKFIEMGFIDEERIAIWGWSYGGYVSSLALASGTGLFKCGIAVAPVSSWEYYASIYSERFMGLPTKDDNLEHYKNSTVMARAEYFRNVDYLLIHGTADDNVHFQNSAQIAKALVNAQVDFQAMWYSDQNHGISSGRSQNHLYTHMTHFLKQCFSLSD
- experiment-notes: FRET-based FAP protease activity assay (mouse)
- Assay type: biochemical
- condition-context: FRET-peptide substrate, 37°C, read-out: pIC50 (mouseFAP) (converted)
Label key: 1 means IC50 under 1 nM; -1 means IC50 of 1 nM or more.

[
  {
    "compound": "CS(=O)(=O)c1cccc(-c2ccc3c(C(=O)NCC(=O)N4CC(F)(F)C[C@H]4C#N)ccnc3c2)c1 [drawing 289]",
    "class-label": -1
  }
]

Does this compound meet the criterion IC50 < 1 nM? `O=C(NCC(=O)N1CCC[C@H]1C(=O)c1ncn[nH]1)c1ccnc2ccccc12`
-1

Does this compound meet the criterion IC50 < 1 nM? `Cc1c(-c2ccc(S(C)(=O)=O)cc2)ccc2nccc(C(=O)NCC(=O)N3CC(F)(F)C[C@H]3C#N)c12`
-1

Does this compound meet the criterion IC50 < 1 nM? `CC(C)(C)c1nnc(C(=O)[C@@H]2CCCN2C(=O)CNC(=O)c2ccnc3ccccc23)o1`
-1

Does this compound meet the criterion IC50 < 1 nM? `Cc1cc(S(C)(=O)=O)ccc1-c1ccc2nccc(C(=O)NCC(=O)N3CC(F)(F)C[C@H]3C#N)c2c1`
-1

Does this compound meet the criterion IC50 < 1 nM? `Cc1cc2nccc(C(=O)NCC(=O)N3CC(F)(F)C[C@H]3C#N)c2cc1-c1ccc(S(C)(=O)=O)cc1`
-1

Does this compound meet the criterion IC50 < 1 nM? `Cc1nc(C(=O)[C@@H]2CCCN2C(=O)CNC(=O)c2ccnc3ccccc23)no1`
-1

Does this compound meet the criterion IC50 < 1 nM? `O=C(NCC(=O)N1CCC[C@H]1C(=O)c1nc2ccccc2o1)c1ccnc2ccccc12`
-1

* * *

- target: Human recombinant FAP (Homo sapiens, UniProt Q12884)
- experiment-notes: Surface plasmon resonance assay (Biacore T200, single cycle kinetics)
- Type: binding
- condition-context: SPR, half-life, 25°C
Recorded HL [min] (Biacore) for the following compounds
Field: numeric (min). Do not append units.

// known answers, use as guide
[
  {
    "smiles-representation": "N#C[C@@H]1CC(F)(F)CN1C(=O)CNC(=O)c1cc[n+]([O-])c2ccc(-c3ccc(S(=O)(=O)CCCNC(=O)CN4CCN(CC(=O)O)CCN(CC(=O)O)CCN(CC(=O)O)CC4)cc3)cc12",
    "target": "Human recombinant FAP (Homo sapiens, UniProt Q12884)",
    "metric-name": "HL [min] (Biacore)",
    "value-measured": 110
  },
  {
    "smiles-representation": "O=C(O)CN1CCN(CC(=O)O)CCN(CC(=O)NCCCNC(=O)c2ccc(-c3ccc4nccc(C(=O)NCC(=O)N5CCC[C@H]5C(=O)c5nc6ccccc6o5)c4c3)cc2)CCN(CC(=O)O)CC1",
    "target": "Human recombinant FAP (Homo sapiens, UniProt Q12884)",
    "metric-name": "HL [min] (Biacore)",
    "value-measured": 259.3
  },
  {
    "smiles-representation": "O=C(NCC(=O)N1CCC[C@H]1C(=O)c1nc2ccccc2o1)c1ccnc2ccccc12",
    "target": "Human recombinant FAP (Homo sapiens, UniProt Q12884)",
    "metric-name": "HL [min] (Biacore)",
    "value-measured": 3.7
  }
]

Kindly consider the entry below.
API: value(readout=HL [min] (Biacore), system=Human recombinant FAP (Homo sapiens, UniProt Q12884)) for record `O=C(NCC(=O)N1CCC[C@H]1C(=O)c1nc2ccccc2s1)c1ccnc2ccccc12`
0.3

* * *

- target: Human recombinant FAP (Homo sapiens, UniProt Q12884)
- experiment-notes: FRET-based FAP protease activity assay (human)
- Type: biochemical
- Design: purchased R&D systems 3715-SE
- condition-context: FRET-peptide substrate, 37°C, read-out: pIC50 (Activity) (converted)
Recorded IC50 for the following compounds
Field: numeric (nM). Do not append units.

[
  {
    "compound": "CC(C)(C)OC(=O)N1CCN(CCCOc2ccc3c(c2)c(C(=O)NCC(=O)N2CC(F)(F)C[C@H]2C#N)cc[n+]3[O-])CC1",
    "value-unit": "nM",
    "value-measured": 2.51
  },
  {
    "compound": "CS(=O)(=O)c1ccc(-c2ccc3nccc(C(=O)NCC(=O)N4CC(F)(F)C[C@H]4C#N)c3c2)cc1",
    "value-unit": "nM",
    "value-measured": 0.631
  },
  {
    "compound": "CC(C)(C)OC(=O)N1CC[N+]([O-])(CCCOc2ccc3c(c2)c(C(=O)NCC(=O)N2CC(F)(F)C[C@H]2C#N)cc[n+]3[O-])CC1",
    "value-unit": "nM",
    "value-measured": 2.51
  }
]

Entry CS(=O)(=O)c1cccc(-c2ccc3nccc(C(=O)NCC(=O)N4CC(F)(F)C[C@H]4C#N)c3c2)c1 [drawing 288] has what IC50?
0.631

Entry `Cn1ncnc1C(=O)[C@@H]1CCCN1C(=O)CNC(=O)c1ccnc2ccccc12` has what IC50?
316

Entry CS(=O)(=O)c1ccc(-c2ccc3c(C(=O)NCC(=O)N4CCC[C@H]4C#N)ccnc3c2)cc1 [drawing 290] has what IC50?
1.58

* * *

- target: HEK-FAP cells (Homo sapiens, UniProt Q12884)
- Construct: expressed in transfected cells; host or cells: HEK293
- Sequence (Q12884 1-760): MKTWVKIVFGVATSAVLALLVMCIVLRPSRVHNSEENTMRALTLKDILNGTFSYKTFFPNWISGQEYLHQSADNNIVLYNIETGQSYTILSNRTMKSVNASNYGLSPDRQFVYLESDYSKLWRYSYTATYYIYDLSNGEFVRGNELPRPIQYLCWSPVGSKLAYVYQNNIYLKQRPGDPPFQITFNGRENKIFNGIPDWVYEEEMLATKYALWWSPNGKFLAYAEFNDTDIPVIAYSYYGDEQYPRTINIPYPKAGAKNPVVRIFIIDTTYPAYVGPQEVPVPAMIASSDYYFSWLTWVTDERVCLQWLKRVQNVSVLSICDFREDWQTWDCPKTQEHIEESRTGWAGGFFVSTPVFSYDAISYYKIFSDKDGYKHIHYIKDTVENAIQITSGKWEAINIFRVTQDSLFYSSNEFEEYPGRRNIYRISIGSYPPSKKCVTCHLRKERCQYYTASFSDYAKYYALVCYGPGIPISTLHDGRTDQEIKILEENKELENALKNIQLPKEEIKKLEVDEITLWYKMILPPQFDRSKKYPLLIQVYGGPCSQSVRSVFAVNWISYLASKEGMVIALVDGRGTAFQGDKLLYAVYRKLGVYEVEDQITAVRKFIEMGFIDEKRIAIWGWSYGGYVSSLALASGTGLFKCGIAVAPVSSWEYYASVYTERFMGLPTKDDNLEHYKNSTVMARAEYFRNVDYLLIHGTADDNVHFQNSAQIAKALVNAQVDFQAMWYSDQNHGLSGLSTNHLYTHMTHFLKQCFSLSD
- experiment-notes: LigandTracer assay with 111In-labeled compounds
- Format: binding
- condition-context: 111In-labeled compound
Recorded HL for the following compounds

// known answers, use as guide
[
  {
    "smiles-representation": "O=C(O)CN1CCN(CC(=O)O)CCN(CC(=O)N2CCN(CCNC(=O)c3cccc(-c4ccc5nccc(C(=O)NCC(=O)N6CCC[C@H]6C(=O)c6nc7ccccc7o6)c5c4)c3)CC2)CCN(CC(=O)O)CC1",
    "value-measured": "1030 ± 1439 min"
  },
  {
    "smiles-representation": "O=C(O)CN1CCN(CC(=O)O)CCN(CC(=O)N2CCN(CCCOc3ccc4nccc(C(=O)NCC(=O)N5C[C@@H](F)C[C@H]5C(=O)c5nc6ccccc6o5)c4c3)CC2)CCN(CC(=O)O)CC1",
    "value-measured": "18 ± 1 min"
  },
  {
    "smiles-representation": "O=C(O)CN1CCN(CC(=O)O)CCN(CC(=O)N2CCN(CCNC(=O)c3ccc(-c4ccc5nccc(C(=O)NCC(=O)N6C[C@@H](F)C[C@H]6C(=O)c6nc7ccccc7o6)c5c4)cc3)CC2)CCN(CC(=O)O)CC1",
    "value-measured": "38 ± 4 min"
  }
]

Entry `O=C(O)CN1CCN(CC(=O)O)CCN(CC(=O)N2CCN(CCNC(=O)c3ccc(-c4ccc5nccc(C(=O)NCC(=O)N6CCC[C@H]6C(=O)c6nc7ccccc7o6)c5c4)cc3)CC2)CCN(CC(=O)O)CC1` has what HL?
1477 ± 2013 min

* * *

Recorded pIC50 (Activity) for the following compounds
- target: Human recombinant FAP (Homo sapiens, UniProt Q12884)
- Sequence (Q12884 1-760): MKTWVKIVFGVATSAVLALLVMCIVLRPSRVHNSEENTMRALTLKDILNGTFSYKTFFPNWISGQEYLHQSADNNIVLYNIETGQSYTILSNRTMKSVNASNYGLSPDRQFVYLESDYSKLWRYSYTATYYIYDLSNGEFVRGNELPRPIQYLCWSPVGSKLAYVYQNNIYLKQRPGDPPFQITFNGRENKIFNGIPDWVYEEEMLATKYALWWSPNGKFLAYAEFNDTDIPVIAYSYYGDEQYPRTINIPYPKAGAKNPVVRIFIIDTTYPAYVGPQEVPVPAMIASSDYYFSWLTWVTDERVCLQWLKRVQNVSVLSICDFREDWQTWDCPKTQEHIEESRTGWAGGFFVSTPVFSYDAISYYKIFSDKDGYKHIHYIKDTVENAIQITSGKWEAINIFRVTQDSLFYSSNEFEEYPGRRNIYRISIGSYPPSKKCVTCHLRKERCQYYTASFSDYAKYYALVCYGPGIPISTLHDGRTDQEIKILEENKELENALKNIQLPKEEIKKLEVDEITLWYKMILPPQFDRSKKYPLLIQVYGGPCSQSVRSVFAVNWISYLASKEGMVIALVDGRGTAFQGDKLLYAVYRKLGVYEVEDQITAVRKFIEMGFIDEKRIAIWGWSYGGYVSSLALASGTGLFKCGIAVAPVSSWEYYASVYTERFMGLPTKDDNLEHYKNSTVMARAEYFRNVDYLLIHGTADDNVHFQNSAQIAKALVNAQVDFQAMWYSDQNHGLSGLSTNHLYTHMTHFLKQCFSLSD
- experiment-notes: FRET-based FAP protease activity assay (human)
- Format: biochemical
- Parameters: purchased R&D systems 3715-SE
- condition-context: FRET-peptide substrate, 37°C

// known answers, use as guide
[
  {
    "compound": "CN(CCCN1CCN(C(=O)CN2CCN(CC(=O)O)CCN(CC(=O)O)CCN(CC(=O)O)CC2)CC1)c1ccc2nccc(C(=O)NCC(=O)N3CC(F)(F)C[C@H]3C#N)c2c1",
    "value-measured": 8.9
  },
  {
    "compound": "N#C[C@@H]1CCCN1C(=O)CNC(=O)c1ccnc2ccc(-c3ccc(C(=O)NCCCNC(=O)CN4CCN(CC(=O)O)CCN(CC(=O)O)CCN(CC(=O)O)CC4)cc3)cc12",
    "value-measured": 9
  },
  {
    "compound": "CS(=O)(=O)c1ccc(-c2ccc3c(C(=O)NCC(=O)N4CC(F)(F)C[C@H]4C#N)ccnc3c2)cc1",
    "value-measured": 9.1
  },
  {
    "compound": "O=C(O)CN1CCN(CC(=O)O)CCN(CC(=O)N2CCN(CCNC(=O)c3cccc(-c4ccc5nccc(C(=O)NCC(=O)N6CCC[C@H]6C(=O)c6nc7ccccc7o6)c5c4)c3)CC2)CCN(CC(=O)O)CC1 [drawing 353]",
    "value-measured": 8.6
  }
]

Kindly consider the entry below.
Entry O=C(O)CN1CCN(CC(=O)O)CCN(CC(=O)N2CCN(CCNC(=O)c3ccc(-c4ccc5nccc(C(=O)NCC(=O)N6CCC[C@H]6C(=O)c6nc7ccccc7o6)c5c4)cc3)CC2)CCN(CC(=O)O)CC1 [drawing 354] has what pIC50 (Activity)?
8.4

The reported measurements were obtained from patent EP4122499A1.
